- System: AsPC-1
- test-details: 72-hour CellTiter-Glo 2.0 growth inhibition screen (single agent, 9x9 combination dose matrix)
- Format: cell-based
- experimental-context: AsPC-1, Pancreas; growth inhibition (GI) curve, single agent, 72 h

{"smiles-structure": "CN1CC[C@@H](c2c(O)cc(O)c3c(=O)cc(-c4ccc(C(F)(F)F)cc4Cl)oc23)[C@@H]1CO", "target-of-assay": "AsPC-1", "EC50 [nM]": 1350}

---

- test-details: PK of voruciclib, daily dosing continuously (Table 4)
- Format: in vivo
- experimental-context: human, plasma, oral, 350 mg, Day 1, daily dosing continuously, mean; read-out: Vz/F

{"smiles-structure": "CN1CC[C@@H](c2c(O)cc(O)c3c(=O)cc(-c4ccc(C(F)(F)F)cc4Cl)oc23)[C@@H]1CO", "Vd/F (L)": 155}

---

- Tested on: NCI-H358
- test-details: 72-hour CellTiter-Glo 2.0 growth inhibition screen (single agent, 9x9 combination dose matrix)
- Assay type: cell-based
- experimental-context: NCl-H358, Lung; Additional Single Agent Responses (inhibition, % I), 72 h
# Lookup of reported Response Area keyed by entry

{"compound": "C=CC(=O)N1CCN(c2nc(=O)n(-c3c(C)ccnc3C(C)C)c3nc(-c4c(O)cccc4F)c(F)cc23)[C@@H](C)C1 [AMG510]", "Response Area": 3.87}
{"compound": "CN1CCN(c2ccc(OC(F)(F)F)c(Nc3ncc4c(n3)-c3c(c(C(N)=O)nn3CCO)CC4)c2)CC1 [Onvansertib]", "Response Area": 3.36}
{"compound": "CC[C@@H]1C(=O)N(C)c2cnc(Nc3ccc(C(=O)N[C@H]4CC[C@H](N5CCN(CC6CC6)CC5)CC4)cc3OC)nc2N1C(C)C [Volasertib]", "Response Area": 3.44}
{"compound": "CN1CC[C@@H](c2c(O)cc(O)c3c(=O)cc(-c4ccc(C(F)(F)F)cc4Cl)oc23)[C@@H]1CO [MEI-522(Voruciclib)]", "Response Area": 2.50}

---

- Tested on: SW48
- test-details: 72-hour CellTiter-Glo 2.0 growth inhibition screen (single agent, 9x9 combination dose matrix)
- Assay type: cell-based
- experimental-context: SW48, Colorectal; growth inhibition (GI), AUC, single agent, 72 h
- Method: Growth inhibition was determined using a 72-hour CellTiter-Glo®2.0 proliferation assay. Combination format was a 9×9 dose matrix. […] Results have been supplied as both Chalice Analyzer files (.mcc) and raw luminescence data. Cell lines that have been preserved in liquid nitrogen are thawed and expanded in growth media (see Appendix I). […] Assay plates are incubated with compound for 3 days and are then analyzed using CellTiter-Glo 2.0. […]
readout-type: Response Area

{"smiles-structure": "C=C(F)C(=O)N1CCN(c2nc(OC[C@@H]3CCCN3C)nc3c2CCN(c2cccc4cccc(Cl)c24)C3)C[C@@H]1CC#N", "endpoint-value": 2.78}
{"smiles-structure": "CN1CCN(c2ccc(OC(F)(F)F)c(Nc3ncc4c(n3)-c3c(c(C(N)=O)nn3CCO)CC4)c2)CC1", "endpoint-value": 7.09}
{"smiles-structure": "C=CC(=O)N1CCN(c2nc(=O)n(-c3c(C)ccnc3C(C)C)c3nc(-c4c(O)cccc4F)c(F)cc23)[C@@H](C)C1", "endpoint-value": 0.61}
{"smiles-structure": "CC[C@@H]1C(=O)N(C)c2cnc(Nc3ccc(C(=O)N[C@H]4CC[C@H](N5CCN(CC6CC6)CC5)CC4)cc3OC)nc2N1C(C)C", "endpoint-value": 6.76}
{"smiles-structure": "CN1CC[C@@H](c2c(O)cc(O)c3c(=O)cc(-c4ccc(C(F)(F)F)cc4Cl)oc23)[C@@H]1CO", "endpoint-value": 4.44}
